Please respond with reported inhibition at 1 µM for every item in the list.
TARGET_DESC: c-kit (Homo sapiens, UniProt P10721)
Construct: MO7e (human megakaryocytic leukemia cell line) which had been arrested for 20 hr; endogenous in cells; host or cells: MO7e human megakaryocytic leukemia cell line
Sequence (P10721 26-976): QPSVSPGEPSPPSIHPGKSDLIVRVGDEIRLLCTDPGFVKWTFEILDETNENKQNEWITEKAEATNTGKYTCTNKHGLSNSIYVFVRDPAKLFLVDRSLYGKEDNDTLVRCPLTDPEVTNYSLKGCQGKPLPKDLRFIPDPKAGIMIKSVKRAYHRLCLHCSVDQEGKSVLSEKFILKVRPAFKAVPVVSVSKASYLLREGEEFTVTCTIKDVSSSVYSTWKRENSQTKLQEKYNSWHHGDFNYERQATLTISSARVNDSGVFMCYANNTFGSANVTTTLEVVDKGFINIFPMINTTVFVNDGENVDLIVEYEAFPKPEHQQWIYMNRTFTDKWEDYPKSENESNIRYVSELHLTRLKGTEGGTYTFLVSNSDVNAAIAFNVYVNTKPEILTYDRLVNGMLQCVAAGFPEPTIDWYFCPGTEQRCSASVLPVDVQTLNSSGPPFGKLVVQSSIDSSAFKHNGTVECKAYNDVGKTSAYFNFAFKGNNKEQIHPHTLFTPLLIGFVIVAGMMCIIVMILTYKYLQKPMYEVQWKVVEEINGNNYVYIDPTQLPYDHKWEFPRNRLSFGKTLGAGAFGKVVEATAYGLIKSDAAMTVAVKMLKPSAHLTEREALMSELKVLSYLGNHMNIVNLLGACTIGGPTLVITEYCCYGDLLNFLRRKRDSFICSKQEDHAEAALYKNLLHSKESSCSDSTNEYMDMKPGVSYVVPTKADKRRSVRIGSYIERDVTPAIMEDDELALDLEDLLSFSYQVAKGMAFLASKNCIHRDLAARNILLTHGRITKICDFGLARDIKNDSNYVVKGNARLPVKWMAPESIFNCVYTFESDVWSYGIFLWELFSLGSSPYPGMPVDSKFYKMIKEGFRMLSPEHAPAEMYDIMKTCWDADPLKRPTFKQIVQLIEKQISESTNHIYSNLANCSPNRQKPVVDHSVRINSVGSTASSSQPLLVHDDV
PROTOCOL_DETAILS: Inhibitory activity against c-kit autophosphorylation (MO7e cells, h-SCF)
Assay type: cell-based
MEASUREMENT_CONTEXT: Mo7e, figure within parentheses in −( ) or >1000( ); at 1000 nM

CCN(CC)CCNC(=O)Nc1ccc(Oc2ncnc3cc(OC)c(OC)cc23)cc1OC ... 23%
COc1cc(Oc2ccnc3cc(OC)c(OC)cc23)ccc1NC(=O)NCCN(C(C)C)C(C)C ... 9%
COc1cc2ncnc(Oc3ccc(NC(=S)NCCN4CCCC4)cc3)c2cc1OC ... 34%
COc1cc2nccc(Oc3ccc(NC(=S)NC(=O)CCSC)c(C)c3)c2cc1OC ... 35%
COc1cc2ncnc(Oc3ccc(NC(=O)NCCN(C(C)C)C(C)C)cc3)c2cc1OC ... 32%

I have 3 compounds here; please give me inhibition at 1 µM for each one.
1. COc1cc2ncnc(Oc3ccc(N(C)C(=O)OC4CCCCC4)c(Cl)c3)c2cc1OC
2. COc1cc2nccc(Oc3ccc(NC(=S)NC(=O)Cc4cccs4)c(C)c3)c2cc1OC
3. COc1cc2nccc(Oc3ccc(NC(=S)NC(=O)c4ccc(Br)s4)c(C)c3)c2cc1OC

A)
["6%", "0%", "20%"]

----------
Please respond with reported IC50 for every item in the list.
TARGET_DESC: c-kit (Homo sapiens, UniProt P10721)
Construct: MO7e (human megakaryocytic leukemia cell line) which had been arrested for 20 hr; endogenous in cells; host or cells: MO7e human megakaryocytic leukemia cell line
PROTOCOL_DETAILS: Inhibitory activity against c-kit autophosphorylation (MO7e cells, h-SCF)
Format: cell-based
MEASUREMENT_CONTEXT: MO7e cells, h-SCF 50 ng/ml; read-out: c-kit IC50
Give bare numbers, in nM.

Please review the following examples before continuing.
COc1ccc(OCCCOC(=O)Nc2ccc(Oc3ncnc4cc(OC)c(OC)cc34)cc2Cl)cc1 ... 388
COc1cc2ncnc(Oc3ccc(NC(=O)OCc4ccc(C)cc4)c(Cl)c3)c2cc1OC ... 422
COc1cc2nccc(Oc3cc(C)c(NC(=O)OCCCOc4ccccc4OC)cc3C)c2cc1OC ... 147
CCCOC(=O)Nc1cc(C)c(Oc2ccnc3cc(OC)c(OC)cc23)cc1C ... 69

I have 3 molecules here; please give me IC50 for each one.
1. COc1cc2nccc(Oc3ccc(NC(=O)OCc4ccc(F)cc4)c(C)c3C)c2cc1OC
2. COc1cc2nccc(Oc3ccc(NC(=O)OC(C)c4cccc(N(C)C)c4)cc3)c2cc1OC (centres unmarked)
3. COc1cc2nccc(Oc3cc(C)c(NC(=O)Oc4c(C)cccc4C)cc3C)c2cc1OC

A)
[45, 807, 471]

----------
TARGET_DESC: PDGF-Ra (Homo sapiens, UniProt P16234)
Construct: host or cells: G-292 human osteosarcoma cells
Sequence (P16234 24-1089): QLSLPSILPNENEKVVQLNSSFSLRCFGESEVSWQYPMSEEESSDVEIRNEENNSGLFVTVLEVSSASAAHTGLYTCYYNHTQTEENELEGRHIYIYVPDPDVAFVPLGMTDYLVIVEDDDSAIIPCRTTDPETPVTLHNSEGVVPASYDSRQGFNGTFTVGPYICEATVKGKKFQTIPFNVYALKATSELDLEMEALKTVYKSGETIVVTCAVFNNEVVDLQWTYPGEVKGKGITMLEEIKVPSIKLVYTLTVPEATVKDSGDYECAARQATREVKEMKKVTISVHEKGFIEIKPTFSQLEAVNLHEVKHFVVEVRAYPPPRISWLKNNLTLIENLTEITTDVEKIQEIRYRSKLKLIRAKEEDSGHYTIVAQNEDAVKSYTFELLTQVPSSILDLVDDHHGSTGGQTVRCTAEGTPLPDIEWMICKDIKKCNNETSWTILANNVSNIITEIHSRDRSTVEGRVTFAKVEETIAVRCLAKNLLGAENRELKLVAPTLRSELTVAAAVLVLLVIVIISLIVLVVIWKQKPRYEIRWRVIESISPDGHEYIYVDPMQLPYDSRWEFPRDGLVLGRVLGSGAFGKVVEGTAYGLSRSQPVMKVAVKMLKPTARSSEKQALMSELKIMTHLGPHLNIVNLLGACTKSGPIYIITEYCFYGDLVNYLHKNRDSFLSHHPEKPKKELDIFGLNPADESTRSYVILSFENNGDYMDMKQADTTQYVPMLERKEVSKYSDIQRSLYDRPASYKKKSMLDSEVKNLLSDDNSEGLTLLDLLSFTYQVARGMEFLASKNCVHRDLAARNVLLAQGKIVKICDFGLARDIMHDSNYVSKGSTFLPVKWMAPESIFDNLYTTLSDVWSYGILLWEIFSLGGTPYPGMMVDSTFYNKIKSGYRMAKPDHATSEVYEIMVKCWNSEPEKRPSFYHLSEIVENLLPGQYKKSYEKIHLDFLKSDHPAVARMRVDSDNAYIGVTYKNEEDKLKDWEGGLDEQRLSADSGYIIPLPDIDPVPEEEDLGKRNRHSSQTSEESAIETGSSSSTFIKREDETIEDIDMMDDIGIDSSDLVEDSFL
PROTOCOL_DETAILS: Inhibitory activity against PDGF-Ra phosphorylation by PDGF-AA stimulation using G292
Format: cell-based
MEASUREMENT_CONTEXT: > means inhibition at indicated concentration not more than 50%, < and << not less than 50%; read-out: PDGF (E) IC50
Rule for this label: label 1 means IC50 is less than 40 nM; label 0 means IC50 is at least 40 nM.

A selection of reference data follows.
COc1cc2ncnc(Oc3ccc(NC(=S)NC(=O)C4CC4)cc3)c2cc1OC [Example 1181] ... label 1
COc1cc2nccc(Oc3ccc(NC(=S)NC(=O)c4ccc(CCl)cc4)cc3)c2cc1OC [Example 1136] ... label 1

Q) Bench note: check whether COc1cc2nccc(Oc3ccc(NC(=O)OCCCN4CCCCC4)c(C)c3C)c2cc1OC [Example 415] shows IC50 below 40 nM
A) label 1

Q) Bench note: check whether COc1cc2nccc(Oc3ccc(NC(=S)NC(=O)CCc4ccc(C)cc4)cc3)c2cc1OC [Example 721] shows IC50 below 40 nM
A) label 1

Q) Bench note: check whether CCCCN(CCCC)CCNC(=O)Nc1cc(C)c(Oc2ccnc3cc(OC)c(OC)cc23)cc1C [Example 683] shows IC50 below 40 nM
A) label 0

Q) Bench note: check whether CCCC(CCC)OC(=O)Nc1ccc(Oc2ncnc3cc(OC)c(OC)cc23)cc1 [Example 400] shows IC50 below 40 nM
A) label 1

Q) Bench note: check whether COc1cc2nccc(Oc3ccc(NC(=O)NC4CC(C)(C)NC(C)(C)C4)cc3)c2cc1OC [Example 562] shows IC50 below 40 nM
A) label 0

Q) Bench note: check whether COc1cc2ncnc(Oc3ccc(NC(=O)NCCN4CCCCC4)c(Cl)c3)c2cc1OC [Example 677] shows IC50 below 40 nM
A) label 0
